- assay-overview: physchem
- setup-conditions: octan-1-ol/water, pH 7.4, LogD7.4
outcome-measure: logD
Just the number, please.

Enquiry: Field request: logD | item: COc1ccc2c(c1)c(-c1ccnc3cc(Cl)ccc13)c(C)n2CC(=O)O
Return: 1.16

Enquiry: Cool, now COc1ccc(-c2cc(C(F)(F)F)ccc2OCC(=O)O)cc1
Return: 0.29

Enquiry: Cool, now Fc1cccc(-c2cncc(CNCC3CC3)n2)c1F
Return: 1.82

Enquiry: Cool, now COC[C@@H](c1ccc(C(F)(F)F)cc1)N1CCN(C2(C)CCN(C(=O)c3c(C)ncnc3C)CC2)C[C@@H]1C [VICRIVIROC]
Return: 2.7

Enquiry: Cool, now CCOc1cccc(/C=C2\SC(=O)NC2=O)c1N1CCC[C@@H](N)C1
Return: 1.86

Enquiry: Cool, now O=C1NC(=O)C(Cc2cccc(Oc3ccccc3)c2)S1 (stereo unspecified)
Return: 2.84

Enquiry: Cool, now CCOc1ccccc1-c1ccc2c(c1)C(=O)C(=O)c1ccccc1-2
Return: 2.67

Enquiry: Cool, now CN[C@@H](C)C(=O)N[C@H](C(=O)N[C@H]1CCN(C(=O)Cc2ccccc2)C1)C1CCCCC1
Return: 0.81

Enquiry: Cool, now O=S(=O)(NCCNc1ncccn1)c1cccc2cnccc12
Return: 0.61

Enquiry: Cool, now O=C(Nc1nc2ccccc2n1CCCO)c1cccc([N+](=O)[O-])c1
Return: 3

Enquiry: Cool, now CCC(c1nc2ccsc2c(=O)n1Cc1ccccc1)N(CCCN)C(=O)c1ccc(C)cc1 (stereo unspecified)
Return: 1.81

Enquiry: Cool, now CCCC1CCCCC(N)=N1 (stereo unspecified)
Return: 1.1

Enquiry: Cool, now COc1cc2nnc(C(N)=O)c(Nc3ccc(F)cc3F)c2cc1N1CCN(C)CC1
Return: 2.36

Enquiry: Cool, now O=C(c1cc(Cc2n[nH]c(=O)c3ccccc23)ccc1F)N1CCCNCC1
Return: 0.1

Enquiry: Cool, now O=C(CC1CCCCC1)Nc1c(Cl)ccc2nc(NCCCO)ccc12
Return: 3.29

Enquiry: Cool, now CCNC(=O)OC[C@@H](C)N(c1cc(Cl)ccc1CO)S(=O)(=O)c1ccc(Cl)cc1
Return: 3.4

Enquiry: Cool, now COc1ccc2c(Oc3ccc(CC(=O)Nc4n[nH]c(C)c4C)c(OC)c3)ccnc2c1
Return: 3.78

Enquiry: Cool, now CNC(=O)c1ccc(CCC(COc2ccc(-c3cccc([N+](=O)[O-])c3)cc2)N2C(=O)CSC2=O)cc1 (stereo unspecified)
Return: 3.5

Enquiry: Cool, now CS(=O)(=O)N1CCOc2cc(COc3ccccc3)cnc21
Return: 2.4

Enquiry: Cool, now CC(C)c1nc2ccccc2n1-c1nc(N2CCOCC2)c2nc(OC3CN(C4CCS(=O)(=O)CC4)C3)n(C)c2n1
Return: 2.9

Enquiry: Cool, now N#Cc1ccc2ccc(=O)n(CCN3CC[C@H](NCc4ccc5c(n4)NC(=O)CO5)[C@H](O)C3)c2c1
Return: 0.11
